- Test system: C6VIK-WT cells
- assay.explanation: GCV killing in culture
- Assay type: cell-based
- condition.description: Rattus norvegicus, read-out: GCV concentration at which 50% of cells were killed
- Excerpt: Retroviral vectors can be used to transfer genes into the genome of dividing cells. In order to increase the efficiency of gene delivery and killing effect of ganciclovir, a new packaging line (C6VIK-WT) was developed by infecting C6VIK cells with an ecotropic wild-type retrovirus (MoMLV). See Mann et al., Cell 33:153-159 (1983); Price et al., Proc. Natl. Acad. Sci. USA 84:156-160 (1987); and Cepko, C., in Neuromethods, vol. […]
metric: pIC50
Scale note: pIC50 = -log10(concentration in M).

Form field: reported pIC50 of Nc1nc(O)c2ncn(COC(CO)CO)c2n1 [ganciclovir]
7.62

---

- Test system: C6BBAG cells co-cultured with C6VIKWT cells
- assay.explanation: Delayed co-culture, ganciclovir sensitivity of recipient colonies
- Type: cell-based
- condition.description: Rattus norvegicus, ratio 1:2, read-out: ganciclovir concentration at which 50% of cells grew
metric: IC50 (µM)
Report as a plain number; the unit µM is understood.

Form field: reported IC50 of `Nc1nc(O)c2ncn(COC(CO)CO)c2n1`
30
